- Assay Target: human Gal-3 (hGal-3) (Homo sapiens (Human))
- Sequence (P17931 whole entry): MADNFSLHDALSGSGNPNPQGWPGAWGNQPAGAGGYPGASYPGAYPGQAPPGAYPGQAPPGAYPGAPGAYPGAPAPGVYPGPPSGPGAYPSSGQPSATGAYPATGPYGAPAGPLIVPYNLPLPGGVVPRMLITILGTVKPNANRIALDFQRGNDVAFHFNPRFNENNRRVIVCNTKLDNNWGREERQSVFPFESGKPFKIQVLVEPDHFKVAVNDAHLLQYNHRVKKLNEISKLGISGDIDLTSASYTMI
Consider the cut-off 80 nM. If the recorded IC50 is strictly smaller, the label is Met; if not, the label is Not met.

Answered cases to consult:
Compound: CO[C@@H]1[C@@H](n2cc(-c3cc(F)c(F)c(F)c3)nn2)[C@@H](O)[C@@H](CO)O[C@@H]1CC1CN(CC2CCN(C(=O)OC(C)(C)C)CC2)C(=O)O1 (mixture of isomers)
Class: Not met
--
Compound: CO[C@@H]1[C@@H](n2cc(-c3cc(F)c(F)c(F)c3)nn2)[C@@H](O)[C@@H](CO)O[C@@H]1Cc1cn(C2CCN(C(C)=O)CC2)nn1
Class: Met
--
Compound: CO[C@@H]1[C@@H](n2cc(-c3cc(F)c(F)c(F)c3)nn2)[C@@H](O)[C@@H](CO)O[C@@H]1CC1CN(C2CCN(S(C)(=O)=O)CC2)C(=O)O1 (mixture of isomers)
Class: Not met
--
Compound: CC(C)(C)c1cc(C[C@H]2O[C@H](CO)[C@H](O)[C@H](n3cc(-c4cc(F)c(F)c(F)c4)nn3)[C@H]2OCC(=O)N2CC[C@H](O)C2)no1
Class: Not met
--
Compound: CO[C@@H]1[C@@H](n2cc(-c3ccc(Br)c(F)c3)nn2)[C@@H](O)[C@@H](CO)O[C@@H]1CC1CC(C2CCN(C(=O)OC(C)(C)C)CC2)=NO1 (some centres unmarked)
Class: Not met
--
Compound: CO[C@@H]1[C@@H](n2cc(-c3cc(F)c(F)c(F)c3)nn2)[C@@H](O)[C@@H](CO)O[C@@H]1Cc1cc(C2CCN(S(=O)(=O)C(C)C)CC2)on1
Class: Met

Now let's try a different one.
Ask: Find out if reported IC50 for `CO[C@@H]1[C@@H](n2cc(-c3cc(F)c(F)c(F)c3)nn2)[C@@H](O)[C@@H](CO)O[C@@H]1Cc1cc(C(C)(C)CN)no1` is less than 80 nM
Result: Not met
